- test: soluble on expression in E. coli; label from the status in PepcDB or PDB records

# sequenceRecord, soluble on expression in E. coli
data = [
    ("MAFQQPNLQQIFSSVDKDRSGQISSDELQTALSNGTWNPFNPETCRLMIGMFDSNGDGAINFQEFQALWRYINDWTNCFRGFDTDGSGNIDKSELTNALTQFGYRLSPQFYNILMHKFDRSHSNRINFDDFIQLCVVLQTLTAAFRLEIRAKIDLEI", "not soluble"),
    ("MSTEKLEASEEPQAPLANTSETNSIKGDTENIVTVFDLANEIEKSLKDVQRQMKENDDEFSRSIQAIEDKLNKMSR", "not soluble"),
    ("MAHHHHHHMTGVASLHRESERSKRKSSGGERNADEADTEGTAGARNAHAKQKQKTVRQGVAVCVWCCGCLPALTARKQNKRERNVCSAPQALVARPHVTAPSARRSSRPLLMRAAGEAHRAVVMSVSVGVRVEQLGGKHTAPLTGRVQKKQLKEGRVEKKRTSTVIAPESKKEKGW", "not soluble"),
]

###

- test: soluble on expression in E. coli; label from the status in PepcDB or PDB records
readout: soluble on expression in E. coli

# sequenceRecord, measuredValue
records = [
    ("MTAPRDVRVRTLSLLLPEPGRKGRLAAISAAVCHRRDMATYRYLDKDRNVLEEQDFGTVQDAEEHRLSVLGAEIIEEVEDSGTPES", "not soluble"),
    ("MGSKISIINHINTIRYYLKKNEVEDKVEDPAGAAEPESTEAFGTFISPSTGMEFIMAPAGEFLMGSSPEEKGRSYSESPVHRVTIKNPFYIGKYQVTQKQWKTIMGTSPSNFNEDFRPVELVSWEDVQEFIGKLNAMENTTKYRLPSEAEWEYACRAGKQSRYFFGEDESKLGDYAWYARNAGRKTHPAGRKKPNRWGLYDMCGNVWEWVQDSWHEDYNGAPSDGSAWEDGNSSNRVSRGGSWYCSTNSCRSASRFSREPEKHLANLGFRLVKELLEHHHHHH", "not soluble"),
    ("MLYNKSSFCLWKETIVPIILDSDVLEVAEYVYKTRLSQPYTEVGSEWEYNYKNPTATFAKGDGHNLQRYITIDGKQLHRPIHGLAHTMRTLMYSQLMYCSSKKQPSPHVCQDGRTIADLSELDLKKINIAQLFFVAGRESEASYGDAYHRYHLYGAKQFEEYARKHLTHLFSEEEIRLYSRCIEDRVGDSFDGTPEGYIIHLSHMIDLMRCKSPVEVFLGHSKGVSGIVPTLIHLFGKQDGLDIMHYARGLFAATGEAVPYIDSSEWPHLGVDLSRVQRALSIVGDINVPGQEADSKKTAQAGFSVDGCYSALTSVPTPSWYEKELKEIDDEKIDVKEVDDREIEKEHEIVVPSQATTPLSTVKTDSFVEKLLKPFMIWKKPEVQTTQPTTEKTNKP", "not soluble"),
]

###

- test: soluble on expression in E. coli; label from the status in PepcDB or PDB records

# sequenceRecord, soluble on expression in E. coli
records = [
    ("MRGKVYLVGAGFGGPEHLTLKALRVLEVAEVVLHDRLVHPGVLALAKGELVPVGKEGYGGKTPQEAITARLIALAREGRVVARLKGGDPMVFGRGGEEALALRRAGIPFEVVPGVTSAVGALSALGLPLTHRGLARSFAVATGHDPALPLPRADTLVLLMPLHTLGGLKERLLERFPPETPLALLARVGWPGEAVRLGRVEDLPGLGEGLPSPALLVVGKVVGLYGELLPKDHGL", "soluble"),
    ("GPGSMTTQNGVNYSQREVVHRMPDWVANRRASVNRGHVAPPLTADGMNPRKASFSGSNGEKQGAVYNNYTERVSSRSGGDRIFSFDNRSTSRRESGTNVSVRSLQPVAGRTAVTHTIRFRGARWSQALSNMSVALERAIKEDVAACCGISSERIGQMKMKFTDRLVVTFVLDHSHDPSEESRFHNQLKVYNFWRTVALYPRK", "soluble"),
    ("MSLEVGFAPAEFTVTDKDGRKVFLSDYKGKYVLIYHWGLCPGTFWVNPKITDLYQKYHEKGLEVLGFTRDDLLKSLQGSSEEFKKDERVQGLLSHPWTTVYTEDEGNGFIVKDLYFSGVPILMLISPDGITLARGYTKAYEEVKNLLDRNLGNKEGHHHHHH", "soluble"),
    ("MGSDKIHHHHHHMTKPLINLVHANGFPAGSYKTFLQEFDNDFRTIAHNQFGHNVLYPIHNNWQHLVTELVEFIKKQDEKVICVGHSFGGVISFIAACQHPELFRGLVMLDPPVVTGAFSHLLSFIKRTPYIDKLSPAGKAKTRQNQWPENTNLVDYFSQKTLFKNFDSRCLQDYASSSVVLRNKRLELSFSPAVEADIFRHLPTNLVKYKNKLTVPAKLIYGEKTQIFPIKHFVRFAKLNDIELMTLPNGGHMFPLEQPENTANMVKQIIKDW", "not soluble"),
    ("MSILDLTKISKDSTKLQNFVKFERVKTGGLDVYMSEYSWNTKEAGTMSICDVSENTSLDYRSNHQQLLKSWISSTEKIAQLFPTTLRTFQVTPPMIAAILDLETAIPKTCDVLIIQNYVPAEMDRYQESVDQFMEKCHIREGVVLHHEVYTNSPKMFQLDYLSVTHSDWMVPSDLEEMENKIVYLDKSDFYDSDMNQFLRELKSGSSHSRLQILSIQGNSWQNYWDPSDVLEGLNAELWNQTERNQHYFLNAEHRKNFKKIADHFYPDQEDGFGAELEHGVDLSEAFDFLKNDGTRVSVRFDELILQVFVWPNEKPSRKRKAQEQGSIAKRFC", "not soluble"),
    ("MSRRHSVVDAYSTVEGKIRDTMRELSALWDEVDMSEAMRLKRVDNAFTHITLLCDDMLSGEKEMIHNLKVSIREDMQNVKKMRLELEMEDFQRPAEIKDGSIALMRHLQSEVKSLETEFQTRHEDQRVLIEKICNLKKRLESDFEFEYEIHAKLNFDTDLPPCMSPATSEMISFITPTRRQAVGPKTSSPKDTQPSTSSSSRTTTPMSKRAMTPSSIASSTPSSAKKVLTRRNQFL", "not soluble"),
]

###

- test: soluble on expression in E. coli; label from the status in PepcDB or PDB records
readout: soluble on expression in E. coli

# sequenceRecord, measuredValue
data = [
    ("MTESEVRKLLRQMKELDSQTAFRDFYNMTYDRLFRIAYYYVKQEEWSQEIVLDIFLKLWKQRDTLLDVKNIEDYCFILVKNASLNYLEKESKYTTIHSDSLPEPQEQSYSPEESLISEELFAIYVKALDRLPERCREIFIRIREEKQSYAQVAEELDISIKTVDAQLQKAVSRLKEMISSSG", "not soluble"),
    ("MITLFQFPAAFNVPNASPYCLKLETWLRLAGLEYQVKVVSDPRKAPKGKLPYVRIEGEAIGDSEIVIRTLGERYGVTLDAGLDARGKGWARAITRLCDEHLYYLMLYFRWFDEDSWRVLKPVFFGSLPFGVRDAVAWAMRRKVRATLRAQGLGVHGRDELLAFARDDLDALDGLLGQVPYYGGEHPCSADAAAYGILANLIEATLDTPLSHVARGYPRLVAYCERMRERVWSELEHHHHHH", "soluble"),
    ("MTDKNPISEAKRYLDNARTILKEKGNKENRFYRDPKYVKMAGHTAYAGVLLALDACFGDKTKGRKDVGWYKEQLSGMDKTALKNFISAYDLLHVAMSYDGNTDSDIAKLGLTRADEIILWVEQRTVTC", "soluble"),
    ("MSLRTIVFDVDDTLYDQQQPFRNAMTKIFPNVATEDMHELYLRFRHHSDETFPKVLANEWSLDFMRFFRMNETLKDLNYPGISQEEGKIFQQVYEEELDNITMHPEVTKLLDTLQEKEIPMGIITNGPTDHQFKKVKQLNIEKWVPSQNIIISQSTGFQKPEKEIFDLACNQFCMEPEHTLYVGDSYDNDIVGARNGGWHSLWFNHRSRELPSCQPASHLAEVTCFTELCPTVEKLFNLEGHHHHHH", "soluble"),
    ("MSLDQPLTFYGLKSMSGAFASYGKYADMGSRLAIAEHPQLLGHPLKYKVIDTEGNAGKAVRKVQEAIGQDGARFFQGCTLSSSALAVSKEIHKAGGVFMTPVGADEITGKDCNASTFRWSVPTYGAIRETLVPMSRQLPQAKRWYTITPQYVFGDALLDNARKVFAELGVEHIGNSYHSLQEQEFSGYLTNAIAAKPDVLVLLNFGSQASNALRQAVNFGIKDRMKVLMVWSAGLDQFQELGSDVLEGVYLGAQYWHQVDTPLNKLLVAATRKAYGINPNYPLAADYIGTKVMLEAIVKAGSLDGAAVSAALQGMRFQGPTGEELIRPGDHQVLKDYYLLRGKPQGQMRDEDDLAEVISSGRSFVEVDHTGCALAEGHHHHHH", "soluble"),
    ("MNNALYNQIRIFQSIAREGNISAAARKLEITPPSVSNALRLLEEHIGHPLFVRTTRRIELTETGQQLLEQTAAAVETLEKSLEIIRDQNQEPSGAVRITLSRFAYLLILKPAMAAFCQQYPGIQLEISVYDGTVNIIEERFDLGIRFGDILEGGVVARPLMKPFREGLYASSAYLAEYGVPAMPADLHHHRLIGYRFITNNRILPLILNDHGEQLTVEMPGQLISNDIDVMADGIRHGLGIGRLFEPILQLQPDREQFIPVMEDYWKTYPPVYLYYPKNAGRTKRVKALIDFLIMYAADDAEKIGSSR", "not soluble"),
    ("KPTAEVVPVNRGFHFQTNKVPSESDVFKHNYDLTFSLNFTNKSNDIYGTGWLFDWKGDEKALGIDGSFVPSITSNIDNSLLKDDQFTVYLATNLHVADALRNDQDYEPYKKDQNKQDFTENTKTEFFSLGKYLEGEQLKQYISKEENQSANQTDKALVSIQASNIPKTAYTATDFVDMNSYSYNNITTSLPGNYADFAVI", "not soluble"),
    ("MNGCKQSASKVFKLVGGFNKASSRCFSSEKLIPKDLKIVKNPTSEQIKQFQKLVGDFNDIKLLKETMKDNYQLYLLCHKDSTVLSGTQSITYKSLNRSIPDFQTFGLSYQPDNTYNLLPHLMHEMATDFKSVKMNSGGCVDSKYAAVWRKVLHTKVRGPTYYVSHYKPDEVFNPELEFDDVVVKKFSDVPVEHVVKYDNSIFPYERKEYILAKFKNGVGRVAYNKSGEVIGIGLVSTESSGNCEIGPIYCDNKNAAQAIFQSIIQDLPMKDLKDVLVRCSDKFEDSATWIRPFLRRSHEMTPFAHIKFNRVIPDGLNFSKVFVSSNPSNAPC", "not soluble"),
    ("MLINARISVRSYPKYQRFSFFYALLFKRIDLILAQSKEDKKRLLNLGAKKVVDFLNIKRFSKPVITSFYPKNPSALNIVLASTHEGEEELGLKAFLELKKTFKNARLIVVPRHPERFKSVQDLLQNTLKTTPFSWECFSSKGFVECDILLVDSLGELNNFYQIADIVILGGSFVKMGGHNPLEPAFFNARLITGEYIFNQVALFELVKPYKIVPKEDLLDALLDYKNLGMARFLENGHDLNELLAFIKHLEHHHHHH", "soluble"),
    ("GASIHDPISAGRYFAQRLRANPNEVFAVLFLDNRHRAISFEELFHGTINGAEVHPREVVRRALTLNAAAVIVGHNHPSGNREPSPADQMITQRLKNALDLIDVRLVDHFVIGDGAPVSFAEHGWL", "not soluble"),
    ("EIFSQELTQREANVKKVHENLEELQKKLDHTSFAHKEDRDRLEAQIAQKEQEQKAKLAEYDQKVQNEFDARERAEREREAARGDAAAEKQRLASLLKDLEDDASGYNRLRPSKPMLSEEDTNILRQLFLSSAVSGSGKFSFQDLKQVLAKYADTIPEGPLKKLFVMVENDTKGRMSYITLVAVANDLAALVADFRKIDTNSNGTLSRKEFREHFVRLGFDKKSVQDALFRYADEDESDDVGFSEYVHLGLCLLVLRILYAFADFDKSGQLSKEEVQKVLEDAHIPESARKKFEHQFSVVDVDDSKSLSYQEFVMLVLLMFHDD", "soluble"),
]
